measured-on: EGFR L858R/C797S (Homo sapiens, UniProt P00533, C797S/L858R)
Sequence (P00533 25-1210 C797S/L858R): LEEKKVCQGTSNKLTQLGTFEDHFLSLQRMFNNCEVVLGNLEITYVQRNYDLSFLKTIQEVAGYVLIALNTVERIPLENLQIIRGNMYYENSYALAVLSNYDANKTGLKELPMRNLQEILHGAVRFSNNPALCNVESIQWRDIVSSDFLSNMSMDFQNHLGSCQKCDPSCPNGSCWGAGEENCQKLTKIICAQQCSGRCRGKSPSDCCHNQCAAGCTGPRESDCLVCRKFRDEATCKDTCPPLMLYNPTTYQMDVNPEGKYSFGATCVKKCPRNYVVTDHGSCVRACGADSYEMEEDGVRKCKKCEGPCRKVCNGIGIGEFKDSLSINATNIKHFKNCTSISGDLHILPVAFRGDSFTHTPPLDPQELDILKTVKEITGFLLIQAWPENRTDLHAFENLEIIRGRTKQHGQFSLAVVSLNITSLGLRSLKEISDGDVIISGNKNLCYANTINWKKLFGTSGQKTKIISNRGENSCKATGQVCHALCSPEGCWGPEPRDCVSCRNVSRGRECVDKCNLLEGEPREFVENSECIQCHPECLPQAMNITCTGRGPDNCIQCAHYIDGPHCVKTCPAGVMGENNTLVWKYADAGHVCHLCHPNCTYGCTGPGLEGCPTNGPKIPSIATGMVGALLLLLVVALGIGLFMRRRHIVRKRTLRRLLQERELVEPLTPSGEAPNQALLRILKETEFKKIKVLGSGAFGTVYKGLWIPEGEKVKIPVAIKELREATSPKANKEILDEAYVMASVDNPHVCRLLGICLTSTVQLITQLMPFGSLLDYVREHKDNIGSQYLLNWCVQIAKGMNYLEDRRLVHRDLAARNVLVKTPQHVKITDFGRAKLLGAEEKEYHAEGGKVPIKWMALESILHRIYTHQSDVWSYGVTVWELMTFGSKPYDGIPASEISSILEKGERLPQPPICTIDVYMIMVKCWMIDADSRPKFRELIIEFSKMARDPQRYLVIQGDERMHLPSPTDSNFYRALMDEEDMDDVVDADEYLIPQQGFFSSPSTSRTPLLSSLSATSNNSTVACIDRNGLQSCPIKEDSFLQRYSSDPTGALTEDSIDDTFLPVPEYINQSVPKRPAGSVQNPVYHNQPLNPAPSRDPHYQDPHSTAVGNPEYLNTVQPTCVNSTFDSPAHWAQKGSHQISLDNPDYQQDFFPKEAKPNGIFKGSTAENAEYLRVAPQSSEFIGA
procedure-summary: Biochemical EGFR kinase assay (Lance Ultra TR-FRET), double mutant L858R/C797S
assay-context: Km ATP; read-out: IC50 L858R/C797S (nM) Km ATP
endpoint-label: IC50 (nM)
Provide the reading as a plain figure in nM.

CS(=O)(=O)Cn1cc(-c2nccc(Nc3cc(N[C@H]4CC[C@@](C)(O)CC4)c(-c4ccn(C(F)F)n4)cn3)n2)cn1
14.7

Data request: State the recorded IC50 for this entry: Cc1cc(-c2cnc(Nc3ccnc(-c4cnn(S(=O)(=O)C5CC5)c4)n3)cc2N[C@H]2CC[C@@H](C(C)(C)O)CC2)nn1C
Data returned: 2.8

Data request: # lookup: IC50 of O=C1NCCCC1Nc1cc(Nc2ccnc(-c3cnn(S(=O)(=O)C4CC4)c3)n2)ncc1-c1ccn(C(F)F)n1 (stereo not shown)
Data returned: 9.1

Data request: Which value of IC50 has been reported for Cn1ccc(-c2cnc(Nc3ccnc(-c4cnn(S(=O)(=O)C5CC5)c4)n3)cc2N[C@H]2CC[C@H](CCO)CC2)n1 in the records?
Data returned: 0.4
